- Target: MRE11 (Homo sapiens (Human))
- Run Description: HTS nuclease assay (fluorescence-quenched 5′ overhang DNA substrate cleavage)
- Format: biochemical
- Reported Conditions: 18 nM MRE11, 40 nM DNA substrate, analysis at t=4 h
Measurement Type: IC50

Previously resolved entries follow.
INSERT INTO results (compound, measurement_type, result) VALUES
  ('CC(C#N)(Cc1ccc(O)c(O)c1)C(=O)Nc1nc(-c2ccccc2)cs1 (stereo not shown) [Preparative Example 179]', 'IC50', '10 to 90 µM'),
  ('COc1cccc(-c2csc(NC(=O)C(C#N)Cc3ccc(O)c(O)c3)n2)n1 (stereo not shown) [Preparative Example 170]', 'IC50', '2 to 10 µM'),
  ('CC(C)(C)c1cc(CC(C#N)C(=O)Nc2nc(-c3ccccn3)cs2)cc(C(C)(C)C)c1O (stereo not shown) [Preparative Example 169]', 'IC50', '10 to 90 µM');

I have 4 compounds here; please give me IC50 for each one.
1. N#CC(Cc1cc(F)c(O)c(Cl)c1)C(=O)Nc1nc(-c2ccccc2)cs1 (stereo not shown) [Preparative Example 156]
2. Cc1cc(CC(C#N)C(=O)Nc2nc(-c3ccc(C(C)(C)C)cc3)cs2)cc(C)c1O (stereo not shown) [Preparative Example 149]
3. Cc1cc(CC(C#N)C(=O)Nc2nc(-c3ccccc3)cs2)cc(C)c1O (stereo not shown) [Preparative Example 147]
4. Cc1cccc(-c2csc(NC(=O)C(C#N)Cc3ccc(O)c(O)c3)n2)n1 (stereo not shown) [Preparative Example 158]

## Result
["2 to 10 µM", "10 to 90 µM", "10 to 90 µM", "2 to 10 µM"]

###

- Target: MRE11 (Homo sapiens (Human), UniProt P49959)
- Sequence (P49959 whole entry): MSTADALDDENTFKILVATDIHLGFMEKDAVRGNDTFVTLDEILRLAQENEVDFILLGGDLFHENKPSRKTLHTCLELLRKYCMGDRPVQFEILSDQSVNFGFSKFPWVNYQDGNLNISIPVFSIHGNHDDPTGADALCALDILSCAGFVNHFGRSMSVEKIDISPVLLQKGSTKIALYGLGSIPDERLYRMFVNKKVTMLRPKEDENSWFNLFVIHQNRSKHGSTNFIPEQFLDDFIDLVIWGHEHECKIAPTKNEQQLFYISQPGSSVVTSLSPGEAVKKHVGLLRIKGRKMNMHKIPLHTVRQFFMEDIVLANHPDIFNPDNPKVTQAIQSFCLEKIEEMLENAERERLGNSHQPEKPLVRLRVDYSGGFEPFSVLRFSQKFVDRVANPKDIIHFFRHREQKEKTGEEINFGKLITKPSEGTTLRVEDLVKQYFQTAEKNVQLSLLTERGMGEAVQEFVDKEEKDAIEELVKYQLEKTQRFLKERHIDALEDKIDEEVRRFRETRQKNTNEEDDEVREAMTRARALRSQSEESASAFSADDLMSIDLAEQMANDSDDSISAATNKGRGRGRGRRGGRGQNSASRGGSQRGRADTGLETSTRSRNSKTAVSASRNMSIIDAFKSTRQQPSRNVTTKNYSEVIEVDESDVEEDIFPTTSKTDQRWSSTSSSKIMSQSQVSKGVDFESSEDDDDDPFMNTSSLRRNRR
- Run Description: HTS nuclease assay (fluorescence-quenched 5′ overhang DNA substrate cleavage)
- Assay type: biochemical
- Reported Conditions: 18 nM MRE11, 40 nM DNA substrate, analysis at t=4 h
Measurement Type: IC50

Illustrative cases are given below, each with its answer.
INSERT INTO measurements (molecule, measurement_type, result) VALUES
  ('N#CC(Cc1ccc(O)c(O)c1)C(=O)Nc1nc(-c2cc(C(F)(F)F)ccn2)cs1 (stereo not shown) [Preparative Example 174]', 'IC50', '< 2 µM'),
  ('N#CC(Cc1ccc(O)c(O)c1)C(=O)Nc1nc(-c2ccc(Cl)cc2Cl)cs1 (stereo not shown) [Preparative Example 171]', 'IC50', '< 2 µM'),
  ('Cc1cc(-c2csc(NC(=O)C(C#N)Cc3ccc(O)c(O)c3)n2)cs1 (stereo not shown) [Preparative Example 152]', 'IC50', '2 to 10 µM');

Batch request: IC50 per item, same order as input.
1. N#CC(Cc1ccc(O)c(O)c1)C(=O)Nc1nc(-c2ccc(Cl)c(Cl)c2)cs1 (stereo not shown) [Preparative Example 160]
2. N#CC(Cc1cc(Cl)c(O)c(Cl)c1)C(=O)Nc1nc(-c2ccc(OC(F)(F)F)cc2)cs1 (stereo not shown) [Preparative Example 137]
3. N#CC(Cc1ccc2nc[nH]c2c1)C(=O)Nc1nc(-c2ccccc2)cs1 (stereo not shown) [Preparative Example 142]
4. N#CC(Cc1ccc(O)c(O)c1)C(=O)Nc1nc(-c2ccsc2)cs1 (stereo not shown) [Preparative Example 145]

## Result
< 2 µM
2 to 10 µM
10 to 90 µM
2 to 10 µM

###

Provide the recorded IC50 for the entries that follow.
- Target: MRE11 (Homo sapiens (Human), UniProt P49959)
- Run Description: HTS nuclease assay (fluorescence-quenched 5′ overhang DNA substrate cleavage)
- Assay type: biochemical
- Reported Conditions: 18 nM MRE11, 40 nM DNA substrate, analysis at t=4 h

INSERT INTO measurements (compound, target, result) VALUES
  ('N#Cc1ccc(-c2csc(NC(=O)C(C#N)Cc3ccc(O)c(O)c3)n2)cc1 (centres unmarked)', 'MRE11 (Homo sapiens (Human), UniProt P49959)', '2 to 10 µM');

For every item in the list below, what is its measured IC50?
1. N#CC(Cc1ccc(O)c(O)c1)C(=O)Nc1nc(-c2ccc(OC(F)(F)F)cc2)cs1 (centres unmarked)
2. N#Cc1cc(CC(C#N)C(=O)Nc2nc(-c3ccccc3)cs2)ccc1O (centres unmarked)
3. N#CC(Cc1ccc(O)c(O)c1)C(=O)Nc1nc(-c2ccccc2C(F)(F)F)cs1 (centres unmarked)
4. CC(C)c1ccc(-c2csc(NC(=O)C(C#N)Cc3ccc(O)c(O)c3)n2)cc1 (centres unmarked)
5. N#CC(Cc1ccc(O)c(O)c1)C(=O)Nc1nc(-c2ccc(C3CCCCC3)cc2)cs1 (centres unmarked)
6. N#CC(Cc1cc(Cl)c(O)c(Cl)c1)C(=O)Nc1nc(-c2ccc3ccccc3c2)cs1 (centres unmarked)

## Result
2 to 10 µM
10 to 90 µM
2 to 10 µM
2 to 10 µM
2 to 10 µM
2 to 10 µM

###

- Test system: Phosphorylated RPA32 S4/S8 in U2OS cells
- Run Description: RPA assay (camptothecin-induced RPA phosphorylation)
- Format: cell-based
- Reported Conditions: Homo sapiens, 10 μM inhibitor, 1 h pre-treatment, 1 uM camptothecin 1 h
Answer each item with its documented inhibition at 10 µM.
Field note: include the unit after the figure.

Previously resolved entries follow.
INSERT INTO results (compound, measurement_type, result) VALUES
  ('N#CC(Cc1ccc(O)c(O)c1)C(=O)Nc1nc(-c2ccc(OC(F)(F)F)cc2)cs1 (stereo not shown) [Preparative Example 136]', 'inhibition at 10 µM', '40%'),
  ('N#CC(Cc1ccc(O)c(O)c1)C(=O)Nc1nc(-c2ccc(Br)cc2)cs1 (stereo not shown) [Preparative Example 129]', 'inhibition at 10 µM', '60%'),
  ('CC(C)(C)c1ccc(-c2csc(NC(=O)C(C#N)Cc3ccc(O)c(O)c3)n2)cc1 (stereo not shown) [Preparative Example 140]', 'inhibition at 10 µM', '40%');

Okay, next one:
## Task Entry under review: CC(C)(C)c1cc(CC(C#N)C(=O)Nc2nc(-c3ccccc3)cs2)cc(C(C)(C)C)c1O (stereo not shown) [Preparative Example 139] . Reported inhibition at 10 µM?
## Result 70%

###

- Target: MRE11 (Homo sapiens (Human), UniProt P49959)
- Run Description: HTS nuclease assay (fluorescence-quenched 5′ overhang DNA substrate cleavage)
- Format: biochemical
- Reported Conditions: 18 nM MRE11, 40 nM DNA substrate, analysis at t=4 h
Measurement Type: IC50

Consider the following illustrative entries.
INSERT INTO measurements (compound, measurement_type, result) VALUES
  ('N#CC(Cc1ccc(O)c(O)c1)C(=O)Nc1nc(-c2cc(Cl)sc2Cl)cs1 (stereo not shown)', 'IC50', '2 to 10 µM'),
  ('N#CC(Cc1ccc(O)c(O)c1Br)C(=O)Nc1nc(-c2ccccc2)cs1 (stereo not shown)', 'IC50', '< 2 µM'),
  ('COc1ccc(-c2csc(NC(=O)C(C#N)Cc3ccc(O)c(O)c3)n2)nc1 (stereo not shown)', 'IC50', '< 2 µM'),
  ('Cc1ccc(-c2csc(NC(=O)C(C#N)Cc3ccc(O)c(O)c3)n2)cc1 (stereo not shown)', 'IC50', '2 to 10 µM'),
  ('COc1ccc(-c2csc(NC(=O)C(C#N)Cc3ccc(O)c(O)c3)n2)c(F)c1 (stereo not shown)', 'IC50', '< 2 µM'),
  ('Cc1cc(CC(C#N)C(=O)Nc2nc(-c3ccccc3)cs2)cc(Cl)c1O (stereo not shown)', 'IC50', '10 to 90 µM'),
  ('N#CC(Cc1ccc(O)c(O)c1)C(=O)Nc1nc(-c2ncccc2F)cs1 (stereo not shown)', 'IC50', '< 2 µM'),
  ('N#CC(Cc1ccc(O)c(O)c1)C(=O)Nc1nc(-c2ccc(Br)cc2)cs1 (stereo not shown)', 'IC50', '2 to 10 µM');

Could you tell me IC50 for each of these compounds? They are listed below.
1. Cc1ccc(-c2sc(NC(=O)C(C#N)Cc3ccc(O)c(O)c3)nc2-c2ccccc2)cc1 (stereo not shown)
2. Cc1ccccc1-c1csc(NC(=O)C(C#N)Cc2ccc(O)c(O)c2)n1 (stereo not shown)
3. N#CC(Cc1ccc(O)c(O)c1)C(=O)Nc1nc(-c2cccc(Cl)c2)cs1 (stereo not shown)
4. Cc1ccc(-c2csc(NC(=O)C(C#N)Cc3ccc(O)c(O)c3)n2)nc1 (stereo not shown)
5. Cc1ccnc(-c2csc(NC(=O)C(C#N)Cc3ccc(O)c(O)c3)n2)c1 (stereo not shown)

## Result
1: < 2 µM; 2: 2 to 10 µM; 3: 2 to 10 µM; 4: < 2 µM; 5: 2 to 10 µM
